system: Rattus norvegicus; assay: Reduction in food intake in 24 hrs food-deprived Sprague-Dawley rat assessed as food intake level per 2 hrs at 100 umol/kg, po followed by standard chow pellets feeding and measured 8 hrs post dose (reference value: 2 to 2.5g/2 hrs); type: functional
Let's look at some molecules and their measured Activity.
Just the number please, in g, no unit attached.

Observe how each entry below is paired with its result.
Smiles Notation | Tested Target | Units Label | Activity
O=C(NC(=S)N1CCNC1=S)c1ccc2ccccc2c1 | Rattus norvegicus | g | 2.5
O=C(/N=C1\SSC2=NCCN21)c1cccc(F)c1 | Rattus norvegicus | g | 1
O=C(/N=C1\SSC2=NCCN21)c1cc2ccccc2s1 | Rattus norvegicus | g | 1

Measured Activity of O=C(/N=C1\SSC2=NCCN21)c1ccc2ccccc2c1 : 1

* * *

tested on: Rattus norvegicus; experiment: Reduction in food intake in 24 hrs food-deprived Sprague-Dawley rat assessed as food intake level at 100 umol/kg, po followed by standard chow pellets feeding and measured 8 hrs post dose (reference value: 14 to 14.5g); type: functional
Readout Kind: Activity (g)
Just the number please, in g, no unit attached.

Smiles Notation | Units Label | Value Observed
O=C(/N=C1\SSC2=NCCN21)c1ccc(F)cc1 | g | 7.93
O=C(/N=C1\SSC2=NCCN21)c1cccc(F)c1 | g | 9.1
O=C(/N=C1\SSC2=NCCN21)c1cc2ccccc2s1 | g | 9.6
O=C(/N=C1\SSC2=NCCN21)c1ccc(Cl)cc1 | g | 9.88

Measured Activity of O=C(/N=C1\SSC2=NCCN21)c1ccc2ccccc2c1 : 9

Measured Activity of O=C(/N=C1\SSC2=NCCN21)c1cccs1 : 8.1

* * *

target: G-protein coupled receptor 6 (Homo sapiens, UniProt P46095); experiment: Inverse agonist activity at rat G-protein GSalpha fused GPR6 (unknown origin) expressed in HEK293 cell membranes assessed as effect on [35S]GTPgammaS binding pre-incubated for 5 to 10 mins followed by 60 mins incubation in presence of [35S]GTPgammaS by scintillation proximity assay; format: functional
Sequence (P46095 whole entry, the tested form may be a part): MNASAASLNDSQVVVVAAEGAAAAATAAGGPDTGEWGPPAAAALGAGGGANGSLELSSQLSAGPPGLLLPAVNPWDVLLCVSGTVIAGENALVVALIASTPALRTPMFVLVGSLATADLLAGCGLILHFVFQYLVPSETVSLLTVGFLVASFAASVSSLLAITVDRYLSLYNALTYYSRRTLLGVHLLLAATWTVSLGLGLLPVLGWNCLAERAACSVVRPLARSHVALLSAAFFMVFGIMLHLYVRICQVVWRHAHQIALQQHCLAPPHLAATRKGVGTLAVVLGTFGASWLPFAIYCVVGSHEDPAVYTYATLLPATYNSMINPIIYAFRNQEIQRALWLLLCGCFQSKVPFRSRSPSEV
Quick rule for you: IC50 under 600 nM gets 1, anything else gets -1.

Smiles Notation | Class Name
O=C(NC(=S)N1CCNC1=S)c1cccc2ccccc12 | -1
CSc1ncccc1C(=O)NC(=S)N1CCNC1=S | -1
Cc1noc(C)c1C(=O)/N=C1\SSC2=NCCN21 | 1
O=C(NC(=S)N1CCNC1=S)c1ccno1 | -1
O=C(/N=C1\SSC2=NCCN21)c1ccno1 | 1

Input: hey, is IC50 for O=C(/N=C1\SSC2=NCCN21)c1ccc(F)cc1 lower than 600 nM or not?
Output: 1

Input: hey, is IC50 for O=C(/N=C1\SSC2=NCCN21)c1ccc(F)cc1F lower than 600 nM or not?
Output: 1

* * *

molecular target: G-protein coupled receptor 6 (Homo sapiens, UniProt P46095); assay: Inverse agonist activity at rat G-protein GSalpha fused GPR6 (unknown origin) expressed in HEK293 cell membranes assessed as cAMP accumulation pre-incubated for 30 mins by microbeta plate reader based assay; type: functional
Category key, based on recorded IC50: low (below 200 nM), mid (200 nM to below 300 nM), high (300 nM or more)

Examples with answers:
Smiles Notation | Class Name
O=C(/N=C1\SSC2=NCCN21)c1ccc(Cl)cc1 | mid
O=C(/N=C1\SSC2=NCCN21)c1cccnc1 | low
O=C(/N=C1\SSC2=NCCN21)c1ccno1 | low

Input: Where would CC(C)(C)c1ccc(C(=O)/N=C2\SSC3=NCCN32)cc1 land among the classes by reported IC50?
Output: high

Input: Where would O=C(/N=C1\SSC2=NCCN21)c1cccc(F)c1 land among the classes by reported IC50?
Output: mid

Input: Where would O=C(/N=C1\SSC2=NCCN21)c1ccccc1F land among the classes by reported IC50?
Output: low

Input: Where would O=C(/N=C1\SSC2=NCCN21)c1ccc(C(F)(F)F)cc1 land among the classes by reported IC50?
Output: low

Input: Where would O=C(NC(=S)N1CCNC1=S)c1cnn(-c2ccc(Cl)cc2)c1C(F)(F)F land among the classes by reported IC50?
Output: high

* * *

molecular target: G-protein coupled receptor 6 (Homo sapiens, UniProt P46095); assay: Inverse agonist activity at rat G-protein GSalpha fused GPR6 (unknown origin) expressed in HEK293 cell membranes assessed as effect on [35S]GTPgammaS binding pre-incubated for 5 to 10 mins followed by 60 mins incubation in presence of [35S]GTPgammaS by scintillation proximity assay; format: functional
Let's look at some compounds and their measured log10(IC50).
Field: value | Transform: log10 | Quantity: IC50 | Unit: nM

Observe how each entry below is paired with its result.
Smiles Notation | Tested Target | log10(IC50)
O=C(/N=C1\SSC2=NCCN21)c1cc2ccccc2s1 | G-protein coupled receptor 6 (Homo sapiens, UniProt P46095) | 2.11
Cc1cccc(C(=O)/N=C2\SSC3=NCCN32)c1 | G-protein coupled receptor 6 (Homo sapiens, UniProt P46095) | 2.90

Measured log10(IC50) of O=C(/N=C1\SSC2=NCCN21)c1ccco1 : 2.40

Measured log10(IC50) of CC(C)(C)c1ccc(C(=O)/N=C2\SSC3=NCCN32)cc1 : 2.81

Measured log10(IC50) of CC(C)(C)c1ccc(C(=O)NC(=S)N2CCNC2=S)cc1 : 5.30

Measured log10(IC50) of O=C(/N=C1\SSC2=NCCN21)c1cnn(-c2ccc(Cl)cc2)c1C(F)(F)F : 2.28

Measured log10(IC50) of Cc1onc(-c2ccccc2)c1C(=O)/N=C1\SSC2=NCCN21 : 3.39

Measured log10(IC50) of COc1ccc(C(=O)/N=C2\SSC3=NCCN32)cc1 : 2.92

Measured log10(IC50) of O=C(/N=C1\SSC2=NCCN21)c1ccccc1F : 2.54

Measured log10(IC50) of O=C(/N=C1\SSC2=NCCN21)c1cccnc1 : 2.83

* * *

Let's look at some compounds and their measured pIC50.
molecular target: G-protein coupled receptor 6 (Homo sapiens); experiment: Inverse agonist activity at rat G-protein GSalpha fused GPR6 (unknown origin) expressed in HEK293 cell membranes assessed as cAMP accumulation pre-incubated for 30 mins by microbeta plate reader based assay; assay type: functional
Reminder that pIC50 means the negative base-10 logarithm of the concentration expressed in mol/L.

Observe how each entry below is paired with its result.
Smiles Notation | pIC50
O=C(/N=C1\SSC2=NCCN21)c1ccc(F)cc1 | 6.70
O=C(/N=C1\SSC2=NCCN21)c1ccco1 | 6.96
O=C(/N=C1\SSC2=NCCN21)c1ccc(F)cc1F | 6.72

Lab entry: G-protein coupled receptor 6 (Homo sapiens) assay, compound O=C(NC(=S)N1CCNC1=S)c1ccccc1F , pIC50 = 3.70

Lab entry: G-protein coupled receptor 6 (Homo sapiens) assay, compound O=C(/N=C1\SSC2=NCCN21)c1ccccc1 , pIC50 = 6.77

Lab entry: G-protein coupled receptor 6 (Homo sapiens) assay, compound COc1cccc(C(=O)/N=C2\SSC3=NCCN32)c1 , pIC50 = 6.40

Lab entry: G-protein coupled receptor 6 (Homo sapiens) assay, compound O=C(/N=C1\SSC2=NCCN21)c1cccs1 , pIC50 = 7.00

* * *

Let's look at some compounds and their measured pIC50.
biological target: G-protein coupled receptor 6 (Homo sapiens); assay: Inverse agonist activity at rat G-protein GSalpha fused GPR6 (unknown origin) expressed in HEK293 cell membranes assessed as effect on [35S]GTPgammaS binding pre-incubated for 5 to 10 mins followed by 60 mins incubation in presence of [35S]GTPgammaS by scintillation proximity assay; type: functional
Reminder that pIC50 means the negative base-10 logarithm of the concentration expressed in mol/L.

Observe how each entry below is paired with its result.
Smiles Notation | Value Observed
COc1cccc(C(=O)/N=C2\SSC3=NCCN32)c1 | 6.51
O=C(/N=C1\SSC2=NCCN21)c1ccc2ccccc2c1 | 6.77
O=C(/N=C1\SSC2=NCCN21)c1cccs1 | 6.38
O=C(/N=C1\SSC2=NCCN21)c1ccccc1 | 6.36
O=C(/N=C1\SSC2=NCCN21)c1cccc(F)c1 | 6.66
O=C(/N=C1\SSC2=NCCN21)c1ccc(Cl)cc1 | 6.19
O=C(/N=C1\SSC2=NCCN21)c1ccc(C(F)(F)F)cc1 | 6.24

Attention now turns to another entry.
Lab entry: G-protein coupled receptor 6 (Homo sapiens) assay, compound O=C(NC(=S)N1CCNC1=S)c1cnn(-c2ccc(Cl)cc2)c1C(F)(F)F , pIC50 = 3.70

* * *

target: G-protein coupled receptor 6 (Homo sapiens, UniProt P46095); assay: Inverse agonist activity at rat G-protein GSalpha fused GPR6 (unknown origin) expressed in HEK293 cell membranes assessed as cAMP accumulation pre-incubated for 30 mins by microbeta plate reader based assay; format: functional
Let's look at some compounds and their measured IC50.
Just the number please, in µM, no unit attached.

Observe how each entry below is paired with its result.
Smiles Notation | IC50 [µM]
O=C(/N=C1\SSC2=NCCN21)c1cc2ccccc2s1 | 0.19
O=C(/N=C1\SSC2=NCCN21)c1ccc2ccccc2c1 | 0.17
COc1ccc(C(=O)/N=C2\SSC3=NCCN32)cc1 | 0.21
Cc1noc(C)c1C(=O)/N=C1\SSC2=NCCN21 | 0.35
Cc1cccc(C(=O)/N=C2\SSC3=NCCN32)c1 | 0.14

Attention now turns to another entry.
Measured IC50 of O=C(NC(=S)N1CCNC1=S)c1ccno1 : 5.83
